# credit: the NIST ThermoML archive (doi:10.1007/s10765-009-0593-3)

Details: 293.15 K; 101.33 kPa; Liquid
mass density: recorded values
Give the value in kg/m3 but do not write kg/m3 after it.

The examples below pair each entry with its known result.
[
  {
    "Compound": "CCCCNCCCC",
    "Units": "kg/m3",
    "Val": 762.022
  },
  {
    "Compound": "CCCOCC(C)OCC(C)O (centres undefined)",
    "Units": "kg/m3",
    "Val": 919.954
  },
  {
    "Compound": "CCCCN(CCCC)CCCC",
    "Units": "kg/m3",
    "Val": 777.632
  }
]

// moving on: another record for mass density
**Q:** Give the measured mass density of CCCCN .
**A:** 738.096

====

Measured mass density by item
Details: 303.15 K; 101.33 kPa; Liquid
Numbers after ± are expanded uncertainties.

Worked set:
[
  {
    "Compound": "CCCCN(CCCC)CCCC [tributylamine]",
    "mass density": "770.183 ± 0.52 kg/m3"
  },
  {
    "Compound": "CCCCN [1-butanamine]",
    "mass density": "728.477 ± 0.58 kg/m3"
  }
]

**Q:** Recorded mass density of CCCOCC(C)OCC(C)O (centres undefined) [1-(1-methyl-2-propoxyethoxy)-2-propanol] , please.
**A:** 911.078 ± 0.31 kg/m3

**Q:** Need mass density of CCCCNCCCC [dibutylamine] , thanks.
**A:** 752.284 ± 0.55 kg/m3

====

Conditions: 303.15 K; 101.33 kPa; Liquid; Pulse-echo method
Examples of compounds with documented speed of sound follow.
Give a bare numeral; the unit m/s is implied.

Solved entries (count: 3):
[
  {
    "Compound": "CCCCN",
    "Units": "m/s",
    "Val": 1228.9
  },
  {
    "Compound": "CCCOCC(C)OCC(C)O (centres undefined)",
    "Units": "m/s",
    "Val": 1251.7
  },
  {
    "Compound": "CCCCNCCCC",
    "Units": "m/s",
    "Val": 1226.7
  }
]

Okay, now this compound:
**Q:** Entry under review: CCCCN(CCCC)CCCC . Reported speed of sound?
**A:** 1229
